system: Mus musculus; assay: Anxiolytic activity in albino mouse assessed as total number of entries into arms at 100 mg/kg, ip by plus-maze test; format: functional; settings: route intraperitoneal
Catalogue of arm entries readings, one per entry.
The answer is to be given in entries; state only the numeric part.

// known answers, use as guide
{"MOLECULE": "Cc1ccc(C2CC(c3ccccc3)=NN2c2nc3ccccc3c(=O)n2C)cc1 (stereo not given)", "arm entries, entries": 3.87}
{"MOLECULE": "Cn1c(N2N=C(c3ccc(Cl)cc3)CC2c2ccco2)nc2ccccc2c1=O (stereo not given)", "arm entries, entries": 4.86}
{"MOLECULE": "COc1ccc(/C=C/C(=N/Nc2nc3ccccc3c(=O)n2C)c2ccccc2)cc1OC", "arm entries, entries": 5.63}
{"MOLECULE": "Cn1c(N/N=C(/C=C/c2cccc(Cl)c2)c2ccccc2)nc2ccccc2c1=O", "arm entries, entries": 3.15}

In: Any idea what its arm entries is? The molecule is Cc1ccc(C(/C=C/c2ccco2)=N\Nc2nc3ccccc3c(=O)n2C)cc1
Out: 5.14

###

test system: Mus musculus; test: Anxiolytic activity in albino mouse assessed as total number of entries into arms at 100 mg/kg, ip by plus-maze test; assay type: functional; conditions: route intraperitoneal
Catalogue of arm entries readings, one per entry.
The answer is to be given in entries; state only the numeric part.

// known answers, use as guide
{"COMPOUND": "Cn1c(N2N=C(c3ccccc3)CC2c2ccc(Cl)cc2)nc2ccccc2c1=O (stereo unspecified)", "UNIT NAME": "entries", "arm entries": 4.12}
{"COMPOUND": "Cn1c(N2N=C(c3ccccc3)CC2c2cccc(Cl)c2)nc2ccccc2c1=O (stereo unspecified)", "UNIT NAME": "entries", "arm entries": 3.75}
{"COMPOUND": "COc1ccc(C(/C=C/c2cccs2)=N\\Nc2nc3ccccc3c(=O)n2C)cc1", "UNIT NAME": "entries", "arm entries": 8}
{"COMPOUND": "Cn1c(N/N=C(/C=C/c2ccco2)c2ccc(Cl)cc2)nc2ccccc2c1=O", "UNIT NAME": "entries", "arm entries": 6.75}
{"COMPOUND": "Cc1ccc(C2=NN(c3nc4ccccc4c(=O)n3C)C(c3cccs3)C2)cc1 (stereo unspecified)", "UNIT NAME": "entries", "arm entries": 5.14}

In: Any idea what its arm entries is? The compound is Cc1ccc(C2=NN(c3nc4ccccc4c(=O)n3C)C(c3ccco3)C2)cc1 (stereo unspecified)
Out: 9

In: Now give it for COc1ccc(C2=NN(c3nc4ccccc4c(=O)n3C)C(c3ccco3)C2)cc1 (stereo unspecified) too.
Out: 5.57

In: Now give it for Cn1c(N2N=C(c3ccccc3)CC2c2ccccc2)nc2ccccc2c1=O (stereo unspecified) too.
Out: 4.37

In: Now give it for Cn1c(N/N=C(/C=C/c2cccs2)c2ccc(Cl)cc2)nc2ccccc2c1=O too.
Out: 8.5

###

Target: Amine oxidase [flavin-containing] A (Rattus norvegicus)
Sequence (P21396 whole entry): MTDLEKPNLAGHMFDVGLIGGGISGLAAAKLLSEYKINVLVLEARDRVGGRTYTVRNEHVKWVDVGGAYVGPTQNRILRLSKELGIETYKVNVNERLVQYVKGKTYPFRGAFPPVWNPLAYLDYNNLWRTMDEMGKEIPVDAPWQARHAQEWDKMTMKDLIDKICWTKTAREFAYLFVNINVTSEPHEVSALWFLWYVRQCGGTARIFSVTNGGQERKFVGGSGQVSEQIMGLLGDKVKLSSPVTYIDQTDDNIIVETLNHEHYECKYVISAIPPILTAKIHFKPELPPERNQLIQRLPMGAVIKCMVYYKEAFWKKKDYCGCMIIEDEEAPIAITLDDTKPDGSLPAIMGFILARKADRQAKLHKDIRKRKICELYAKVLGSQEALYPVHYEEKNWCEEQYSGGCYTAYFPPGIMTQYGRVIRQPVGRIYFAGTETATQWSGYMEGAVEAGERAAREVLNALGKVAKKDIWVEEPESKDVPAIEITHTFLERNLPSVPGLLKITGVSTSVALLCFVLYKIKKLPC
PROPERTY LABEL: Ki (µM)

// known answers, use as guide
{"COMPOUND": "Cc1ccc(/C=C/C(=N/Nc2nc3ccccc3c(=O)n2C)c2ccccc2)cc1", "Ki (µM)": 30.2}
{"COMPOUND": "Cn1c(N/N=C(/C=C/c2cccs2)c2ccc(Cl)cc2)nc2ccccc2c1=O", "Ki (µM)": 28.2}
{"COMPOUND": "Cc1ccc(C2=NN(c3nc4ccccc4c(=O)n3C)C(c3cccs3)C2)cc1 (stereo not drawn)", "Ki (µM)": 130}
{"COMPOUND": "C#CCN(C)Cc1ccccc1", "Ki (µM)": 8.5}
{"COMPOUND": "Cn1c(N/N=C(/C=C/c2ccc(Br)cc2)c2ccccc2)nc2ccccc2c1=O", "Ki (µM)": 40.3}
{"COMPOUND": "Cn1c(N2N=C(c3ccccc3)CC2c2ccccc2)nc2ccccc2c1=O (stereo not drawn)", "Ki (µM)": 9.9}

P = COc1ccc(/C=C/C(=N/Nc2nc3ccccc3c(=O)n2C)c2ccccc2)cc1
Q = CCOc1ccc(/C=C/C(=N/Nc2nc3ccccc3c(=O)n2C)c2ccccc2)cc1
In: Sorting by Ki in descending order, would P or Q appear first? Please identify the chosen entry by its label.
Out: Q

Reference source for all entries: ChEMBL document CHEMBL1140866
